- TEST_METHOD_NOTES: Cellular Toxicity (caspase-3) Jurkat (AID 655);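 note: cells exposed to compound for 16 h at 37 °C before reading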
- PROTOCOL_CONDITIONS: Jurkat caspase-3 activation, luminescence; series mostly up to 92.2 µM
Results filed as inconclusive are left out. Activity calls are given as the source filed them. Calls come from the whole dose curve; as a rule, active = well fitted activation curve with a large enough effect; inconclusive = small, poorly fitted or top-dose-only effect; inactive = flat fitted curve, though single readings scatter.
ASSAY_ENDPOINT: outcome

> print(dat)
                               compound       val
1        CC(C)(C)CC(C)(C)c1ccc(OCCO)cc1  inactive
2  CC1=CCC2CC1C2(C)C (stereo not drawn)  inactive
3                                    CO  inactive

----------
- Tested on: KB-3-1
- TEST_METHOD_NOTES: Cytotoxic Profiling of Annotated Libraries Using Quantitative High-Throughput Screening (AID 1296008); note: % is set by controls: 0 for no effect and ±100 for the full control effect; nearly all actives have a fitted effect of over 60% in size
- PROTOCOL_CONDITIONS: Five cell lines viability, CellTiter-Glo ATP luminescence, 48-72 h; active compounds read low
Results filed as inconclusive are left out. Active and inactive are the calls of the source. Calls come from the whole dose curve; as a rule, active = well fitted inhibition curve with a large enough effect; inconclusive = small, poorly fitted or top-dose-only effect; inactive = flat fitted curve, though single readings scatter. Where a SMILES comes first, the peptide text is derived from it. [ ]: non-standard residue; d: D form. pGlu = O=C1CC[C@@H](C(=O)O)N1

COMPOUND	SUBJECT_OF_TEST	max response
CC(=O)Nc1ccc(OC(C)=O)cc1	KB-3-1	6.1% (inactive)
CC(C)[C@@H]1CC[C@@H](C)C[C@H]1O	KB-3-1	-7.15% (inactive)
CCOC(=O)Oc1c(OC)cc(C(=O)O[C@@H]2C[C@@H]3CN4CCc5c([nH]c6cc(OC)ccc56)[C@H]4C[C@@H]3[C@H](C(=O)OC)[C@H]2OC)cc1OC	KB-3-1	3.08% (inactive)
CC(O)[C@H]1CC[C@H]2[C@@H]3CC[C@@H]4C[C@@H](O)CC[C@]4(C)[C@H]3CC[C@]12C (stereo not given in full)	KB-3-1	-16.3% (inactive)
CCN(CC)CCC(=O)N1c2ccccc2Sc2ccc(Cl)cc21	KB-3-1	24.4% (inactive)
CCCC1C(=O)N2C(N(C)C)=Nc3ccc(C)cc3N2C1=O (stereo not given)	KB-3-1	-2.47% (inactive)
[O]=[Bi][O][Bi]=[O]	KB-3-1	-13.6% (inactive)
CC(C)N1CCN(c2ccc(OC[C@H]3CO[C@](Cn4cncn4)(c4ccc(Cl)cc4Cl)O3)cc2)CC1	KB-3-1	0.302% (inactive)
CCN(CC)CCOc1ccccc1OC	KB-3-1	3.77% (inactive)
CC[C@H](C)[C@H](NC(=O)[C@H](Cc1ccccc1)NC(=O)[C@H](C)NC(=O)[C@H](CC(=O)O)NC(=O)[C@H](CCCCN)NC(=O)[C@H](CO)NC(=O)[C@@H]1CCCN1C(=O)[C@@H]1CCC(=O)N1)C(=O)NCC(=O)N[C@@H](CC(C)C)C(=O)N[C@@H](CCSC)C(N)=O ([pGlu]PSKDAFIGLM-NH2)	KB-3-1	17.8% (inactive)

----------
- Test system: HB3
- TEST_METHOD_NOTES: qHTS profiling for inhibitors of Plasmodium falciparum proliferation (AID 504749); note: nearly all actives have a fitted effect of over 60% in size
- PROTOCOL_CONDITIONS: P. falciparum in erythrocytes, SYBR Green DNA, 72 h; series mostly up to 28.7 µM
Records with an inconclusive call do not appear. Activity calls are given as the source filed them. The call rests on the fitted dose curve; in most records, active means well fitted inhibition curve with a large enough effect; inconclusive means small, poorly fitted or top-dose-only effect; inactive means flat fitted curve, though single readings scatter.
Labels: active, inactive

COMPOUND	SUBJECT_OF_TEST	ASSIGNED_CLASS
O=C1c2ccccc2CN2C(=O)c3ccccc3CN12	HB3	inactive
CN1C(=O)C[C@@H](C(=O)N[C@@H](Cc2cnc[nH]2)C(=O)N2CCC[C@H]2C(N)=O)NC1=O	HB3	inactive
CN1CCCC(CN2c3ccccc3Sc3ccccc32)C1 (stereo unspecified)	HB3	inactive
c1ccc(-n2cnnn2)cc1	HB3	inactive
c1ccc2ccccc2c1	HB3	inactive
CC(C)[C@@H](N)C(=O)O	HB3	inactive
COC(=O)CCC[N+](C)(C)C	HB3	inactive
O=C(O)c1ccc(OCCn2ccnc2)cc1	HB3	inactive
Cc1ccc(C(C)(C)c2ccc(C)cc2)cc1	HB3	inactive
CN(C)CCC=C1c2ccccc2C(C)(C)c2ccccc21	HB3	inactive
CCCCCCCCCC(=O)NO	HB3	inactive
CCCc1nc(C(C)(C)O)c(C(=O)OCc2oc(=O)oc2C)n1Cc1ccc(-c2ccccc2-c2nn[nH]n2)cc1	HB3	inactive
OCC1(CO)COC(C(Cl)(Cl)Cl)OC1	HB3	inactive
CC1CCCCN1CCCOC(=O)c1ccccc1 (stereo unspecified)	HB3	inactive
CC(=O)NCCCS(=O)(=O)O	HB3	inactive
OCl	HB3	inactive
Oc1cc(O)cc(O)c1	HB3	inactive
CC(C)Cc1ccc([C@@H](C)C(=O)NS(C)(=O)=O)cc1	HB3	inactive
CCCOc1cc(N)ccc1C(=O)OCCN(CC)CC	HB3	inactive
CC(=O)[C@H]1CC[C@H]2[C@@H]3C=CC4=CC(=O)CC[C@@]4(C)[C@H]3CC[C@]12C	HB3	inactive
COc1ccc(/C=C/C(=O)O)cc1	HB3	inactive
O=P(O)(O)OP(=O)(O)OP(=O)(O)O	HB3	inactive
C=Cc1ccc(S(=O)(=O)O)cc1	HB3	inactive
COc1ccc2nc(NC(=O)Nc3ccccc3)sc2c1	HB3	inactive
CC/C=C\C/C=C\C/C=C\CCCCCCCC(=O)O	HB3	inactive
CC12CCC(C1)C(C)(C)C2=O (stereo unspecified)	HB3	inactive
Cn1c(=O)c2c(ncn2CCOC(=O)C(C)(C)Oc2ccc(Cl)cc2)n(C)c1=O	HB3	inactive
OC[C@H]1O[C@@H]2O[C@H]3[C@H](O)[C@@H](O)[C@@H](O[C@H]4[C@H](O)[C@@H](O)[C@@H](O[C@H]5[C@H](O)[C@@H](O)[C@@H](O[C@H]6[C@H](O)[C@@H](O)[C@@H](O[C@H]7[C@H](O)[C@@H](O)[C@@H](O[C@H]1[C@H](O)[C@H]2O)O[C@@H]7CO)O[C@@H]6CO)O[C@@H]5CO)O[C@@H]4CO)O[C@@H]3CO	HB3	inactive
[O-][N+](=Nc1ccccc1)c1ccccc1	HB3	inactive
FC(F)(F)C(F)(F)C(F)(F)C(F)(F)C(F)(F)C(F)(F)F	HB3	inactive
CCCCC(CC)CCC(CC(C)C)OS(=O)(=O)O (stereo unspecified)	HB3	inactive
NC(=O)C1c2ccccc2CCc2ccccc21	HB3	inactive
CC(C)=CCC/C(C)=C/CC/C(C)=C/CC/C=C(\C)CC/C=C(\C)CCC=C(C)C	HB3	inactive
CC1=CC(=C(c2ccc(N)cc2)c2ccc(N)cc2)C=CC1=N	HB3	active
N[C@@H](Cc1cc(I)c(Oc2ccc(O)c(I)c2)c(I)c1)C(=O)O	HB3	inactive
C=C1C(CCl)(CCl)C2(Cl)C(Cl)C(Cl)C1(Cl)C2(Cl)Cl (stereo unspecified)	HB3	active
CC(C)CCC[C@@H](C)[C@H]1CC[C@H]2[C@@H]3CC=C4C[C@@H](O)CC[C@]4(C)[C@H]3CC[C@]12C	HB3	inactive
CCN(CC)C(=O)c1cccnc1	HB3	inactive
O=P(O)(O)OC[C@H]1O[C@](O)(COP(=O)(O)O)[C@@H](O)[C@@H]1O	HB3	inactive
CCN(CC)CCOc1ccc2nc(N(C)C)sc2c1	HB3	inactive
COC(=O)[C@@H](N)CS	HB3	inactive
COc1ccc(C(=O)c2ccc(C)cc2)c(O)c1	HB3	inactive
COc1cc2c(cc1OC)[C@@H](Cc1cc(OC)c(OC)c(OC)c1)[N+](C)(CCCOC(=O)CC/C=C/CCC(=O)OCCC[N+]1(C)CCc3cc(OC)c(OC)cc3[C@H]1Cc1cc(OC)c(OC)c(OC)c1)CC2 (stereo partly specified)	HB3	inactive
CC1(C)S[C@@H]2[C@H](NC(=O)C3(N)CCCCC3)C(=O)N2[C@H]1C(=O)O	HB3	inactive
O=P(O)(O)OP(=O)(O)O	HB3	inactive
O=[n+]1ccn([O-])c2ccccc21	HB3	inactive

----------
Reported max response by item:
- Test system: KB-3-1
- TEST_METHOD_NOTES: Cytotoxic Profiling of Annotated Libraries Using Quantitative High-Throughput Screening (AID 1296008); note: % is set by controls: 0 for no effect and ±100 for the full control effect; nearly all actives have a fitted effect of over 60% in size
- PROTOCOL_CONDITIONS: Five cell lines viability, CellTiter-Glo ATP luminescence, 48-72 h; active compounds read low
Inconclusive results are not listed. Activity calls are given as the source filed them. Calls follow the shape of the dose curve; as a rule, active = well fitted inhibition curve with a large enough effect; inconclusive = small, poorly fitted or top-dose-only effect; inactive = flat fitted curve, though single readings scatter.
ASSAY_ENDPOINT: max response

> print(dat)
                      smiles.representation                val
1  CS(=O)(=O)c1ccc([C@@H](O)[C@@H](COC(=O)CN)NC(=O)C(Cl)Cl)cc1  -15.1% (inactive)
2                   C=Cc1ccc(S(=O)(=O)O)cc1   36.9% (inactive)
3                 OC[C@@H](O)C(O)[C@H](O)CO   2.54% (inactive)
4                        COC(=O)[C@@H](N)CS  -3.99% (inactive)

The reported measurements were obtained from PubChem BioAssay (NCATS).
